Hello, the source for this data is paper PMC6300136, in case you need it.

assay type: in vivo, rhesus monkeys (Macaca mulatta); conditions: read-out: Cmax, median (range); CSF; median (range) of NHP
property_label: Cmax (nM)

1. CC(=O)[O][Pt]([NH2])([Cl])([Cl])([NH]C1CCCCC1)[O]C(C)=O : 90

* * *

assay type: in vivo, rhesus monkeys (Macaca mulatta); details: CSF from intralumbar catheter; animal 1; 6 mg/kg IV over 1 h
property_label: Cmax (nM)

1. CC(=O)[O][Pt]([NH2])([Cl])([Cl])([NH]C1CCCCC1)[O]C(C)=O [Satraplatin] : 620
